The following compounds each carry a recorded Ki for Nitric oxide synthase, inducible (Homo sapiens, UniProt P35228).
Please state the figure in µM; there is no need to write the unit.

Some compounds with known Ki results, for comparison:
[
  {
    "Compound": "CNC(N)=Nc1cccc(CC(N)C(=O)O)c1 (centres undefined)",
    "Experimental system": "Nitric oxide synthase, inducible (Homo sapiens, UniProt P35228)",
    "Result": 96
  },
  {
    "Compound": "N=C(N)Nc1cccc(CC(N)C(=O)O)c1 (centres undefined)",
    "Experimental system": "Nitric oxide synthase, inducible (Homo sapiens, UniProt P35228)",
    "Result": 100
  },
  {
    "Compound": "CC(=N)Nc1ccccc1CC(N)C(=O)O (centres undefined)",
    "Experimental system": "Nitric oxide synthase, inducible (Homo sapiens, UniProt P35228)",
    "Result": 1.9
  }
]

Consider now this further compound.
Q: Fill in the blank: the reported Ki of C/N=C(/N)Nc1ccccc1CC(N)C(=O)O (centres undefined) is ____.
Result: 0.6
